Here, each record is paired with measured IC50 data.
target.desc: recombinant autotaxin (Homo sapiens, UniProt Q13822)
assay.comment: Autotaxin test (enzyme test), Amplex Red fluorescence with LPC substrate
run.parameters: autotaxin inhibition (enzyme test)
measured.metric: IC50

> print(dat)
                                    compound                               target.desc          result
 1  CC(C)(C)[C@H](O)C(=O)N1CCN2C(=O)c3cc(-c4ccc(Cl)cc4F)ccc3NC(=O)[C@@H]2C1  recombinant autotaxin (Homo sapiens, UniProt Q13822)       > 1000 nM
 2  Cn1cc(CCC(=O)N2CCN3C(=O)c4cc(-c5ccc(Cl)cc5)ccc4NC(=O)C3C2)cn1 (centres unmarked)  recombinant autotaxin (Homo sapiens, UniProt Q13822)       > 1000 nM
 3  CC(C)(C)CC(=O)N1CCN2C(=O)c3cc(-c4ccc(Cl)cc4F)ccc3N(CCN3CCOCC3)C(=O)[C@H]2C1  recombinant autotaxin (Homo sapiens, UniProt Q13822)       > 1000 nM
 4  O=C1Nc2ccc(-c3ccccc3F)cc2C(=O)N2CCN(C(=O)CCc3ccccn3)CC12 (centres unmarked)  recombinant autotaxin (Homo sapiens, UniProt Q13822)       > 1000 nM
 5  O=C1Nc2ccc(-c3ccc(Cl)cc3)cc2C(=O)N2CCN(C(=O)[C@@H]3CCCN3)CC12 (some centres unmarked)  recombinant autotaxin (Homo sapiens, UniProt Q13822)       > 1000 nM
 6  COC(C(=O)N1CCN2C(=O)c3cc(-c4ccc(Cl)cc4)ccc3NC(=O)C2C1)c1ccccc1 (centres unmarked)  recombinant autotaxin (Homo sapiens, UniProt Q13822)       > 1000 nM
 7  CC(C)(C)CC(=O)N1CCN2C(=O)c3cc(-c4cc(Cl)cc(Cl)c4)ccc3NC(=O)C2C1 (centres unmarked)  recombinant autotaxin (Homo sapiens, UniProt Q13822)       > 1000 nM
 8  O=C1Nc2ccc(-c3ccc(Cl)cc3)cc2C(=O)N2CCN(C(=O)c3cscn3)CC12 (centres unmarked)  recombinant autotaxin (Homo sapiens, UniProt Q13822)  100 to 1000 nM
 9  CC(C)(C)[C@H](N)C(=O)N1CCN2C(=O)c3cc(-c4ccc(Cl)cc4F)ccc3NC(=O)[C@H]2C1  recombinant autotaxin (Homo sapiens, UniProt Q13822)       > 1000 nM
10  O=C1Nc2ccc(-c3ccc(Cl)cc3)cc2C(=O)N2CCN(C(=O)OCc3ccccc3)CC12 (centres unmarked)  recombinant autotaxin (Homo sapiens, UniProt Q13822)       > 1000 nM
11  COCCN1C(=O)C2CN(C(=O)CC(C)(C)C)CCN2C(=O)c2cc(-c3ccc(Cl)cc3)ccc21 (centres unmarked)  recombinant autotaxin (Homo sapiens, UniProt Q13822)       > 1000 nM
12  CN1CCN(C(=O)CN2C(=O)[C@H]3CN(C(=O)CC(C)(C)C)CCN3C(=O)c3cc(-c4ccc(Cl)cc4F)ccc32)CC1  recombinant autotaxin (Homo sapiens, UniProt Q13822)       > 1000 nM
13  NCCN1CCC[C@H]1C(=O)N1CCN2C(=O)c3cc(-c4ccc(Cl)cc4F)ccc3NC(=O)[C@H]2C1  recombinant autotaxin (Homo sapiens, UniProt Q13822)       > 1000 nM
14  CC(C)(C)CC(=O)N1CCN2C(=O)c3cc(-c4ccc(Cl)cc4F)ccc3N(CCO)C(=O)[C@@H]2C1  recombinant autotaxin (Homo sapiens, UniProt Q13822)  100 to 1000 nM
15  NC(=O)CN1C(=O)[C@H]2CN(C(=O)[C@@H]3CCCN3C3CCNCC3)CCN2C(=O)c2cc(-c3ccc(Cl)cc3F)ccc21  recombinant autotaxin (Homo sapiens, UniProt Q13822)  100 to 1000 nM
16  O=C1Nc2ccc(-c3ccc(Cl)cc3F)cc2C(=O)N2CCN(C(=O)CC3CC3)CC12 (centres unmarked)  recombinant autotaxin (Homo sapiens, UniProt Q13822)       > 1000 nM
17  CN1CCC(N2C(=O)C3CN(C(=O)CC(C)(C)C)CCN3C(=O)c3cc(-c4ccc(Cl)cc4F)ccc32)CC1 (centres unmarked)  recombinant autotaxin (Homo sapiens, UniProt Q13822)       > 1000 nM
18  CC(C)(C)CC(=O)N1CCN2C(=O)c3cc(-c4ccc(Cl)cc4F)ccc3N(CC(N)=O)C(=O)C2C1 (centres unmarked)  recombinant autotaxin (Homo sapiens, UniProt Q13822)  100 to 1000 nM
19  COC[C@H](N)C(=O)N1CCN2C(=O)c3cc(-c4ccc(Cl)cc4F)ccc3NC(=O)[C@H]2C1  recombinant autotaxin (Homo sapiens, UniProt Q13822)       > 1000 nM
20  O=C1Nc2ccc(-c3ccc(Cl)cc3F)cc2C(=O)N2CCN(C(=O)[C@@H]3CCCN3C3CCOCC3)C[C@H]12  recombinant autotaxin (Homo sapiens, UniProt Q13822)  100 to 1000 nM
21  O=C1Nc2ccc(-c3ccc(Cl)cc3)cc2C(=O)N2CCN(C(=O)C3(c4ccccc4)CCCC3)CC12 (centres unmarked)  recombinant autotaxin (Homo sapiens, UniProt Q13822)  100 to 1000 nM
22  CC(C)(C)CC(=O)N1CCN2C(=O)c3cc(-c4cc(F)ccc4F)ccc3NC(=O)C2C1 (centres unmarked)  recombinant autotaxin (Homo sapiens, UniProt Q13822)       > 1000 nM
23  O=C1Nc2ccc(-c3ccc(Cl)cc3)cc2C(=O)N2CCN(C(=O)C3CSC(c4ccncc4)N3)CC12 (centres unmarked)  recombinant autotaxin (Homo sapiens, UniProt Q13822)       > 1000 nM
24  O=C1Nc2ccc(-c3ccccc3F)cc2C(=O)N2CCN(C(=O)C3CCCCC3)C[C@H]12  recombinant autotaxin (Homo sapiens, UniProt Q13822)       > 1000 nM
25  CC(C)(C)CC(=O)N1CCN2C(=O)c3cc(-c4ccc(Cl)cc4F)ccc3NC(=O)C2C1 (centres unmarked)  recombinant autotaxin (Homo sapiens, UniProt Q13822)  100 to 1000 nM
26  O=C1Nc2ccc(-c3ccc(Cl)cc3)cc2C(=O)N2CCN(C(=O)C3CCCN3C(=O)Nc3ccc(Cl)cc3)CC12 (centres unmarked)  recombinant autotaxin (Homo sapiens, UniProt Q13822)       > 1000 nM
27  O=C1Nc2ccc(-c3ccccc3F)cc2C(=O)N2CCN(C(=O)c3ccc4[nH]nnc4c3)CC12 (centres unmarked)  recombinant autotaxin (Homo sapiens, UniProt Q13822)       > 1000 nM
28  O=C([C@@H]1CCCN1C1CCNCC1)N1CCN2C(=O)c3cc(-c4ccc(Cl)cc4F)ccc3N(CCO)C(=O)[C@H]2C1  recombinant autotaxin (Homo sapiens, UniProt Q13822)       > 1000 nM
29  CC(C)(C)CC(=O)N1CCN2Cc3cc(-c4ccccc4F)ccc3NCC2C1 (centres unmarked)  recombinant autotaxin (Homo sapiens, UniProt Q13822)       > 1000 nM
